Field: IC50. Provide a value for each of the compounds that follow.
Target: Epidermal growth factor receptor (Homo sapiens, UniProt P00533)
Sequence (P00533 whole entry): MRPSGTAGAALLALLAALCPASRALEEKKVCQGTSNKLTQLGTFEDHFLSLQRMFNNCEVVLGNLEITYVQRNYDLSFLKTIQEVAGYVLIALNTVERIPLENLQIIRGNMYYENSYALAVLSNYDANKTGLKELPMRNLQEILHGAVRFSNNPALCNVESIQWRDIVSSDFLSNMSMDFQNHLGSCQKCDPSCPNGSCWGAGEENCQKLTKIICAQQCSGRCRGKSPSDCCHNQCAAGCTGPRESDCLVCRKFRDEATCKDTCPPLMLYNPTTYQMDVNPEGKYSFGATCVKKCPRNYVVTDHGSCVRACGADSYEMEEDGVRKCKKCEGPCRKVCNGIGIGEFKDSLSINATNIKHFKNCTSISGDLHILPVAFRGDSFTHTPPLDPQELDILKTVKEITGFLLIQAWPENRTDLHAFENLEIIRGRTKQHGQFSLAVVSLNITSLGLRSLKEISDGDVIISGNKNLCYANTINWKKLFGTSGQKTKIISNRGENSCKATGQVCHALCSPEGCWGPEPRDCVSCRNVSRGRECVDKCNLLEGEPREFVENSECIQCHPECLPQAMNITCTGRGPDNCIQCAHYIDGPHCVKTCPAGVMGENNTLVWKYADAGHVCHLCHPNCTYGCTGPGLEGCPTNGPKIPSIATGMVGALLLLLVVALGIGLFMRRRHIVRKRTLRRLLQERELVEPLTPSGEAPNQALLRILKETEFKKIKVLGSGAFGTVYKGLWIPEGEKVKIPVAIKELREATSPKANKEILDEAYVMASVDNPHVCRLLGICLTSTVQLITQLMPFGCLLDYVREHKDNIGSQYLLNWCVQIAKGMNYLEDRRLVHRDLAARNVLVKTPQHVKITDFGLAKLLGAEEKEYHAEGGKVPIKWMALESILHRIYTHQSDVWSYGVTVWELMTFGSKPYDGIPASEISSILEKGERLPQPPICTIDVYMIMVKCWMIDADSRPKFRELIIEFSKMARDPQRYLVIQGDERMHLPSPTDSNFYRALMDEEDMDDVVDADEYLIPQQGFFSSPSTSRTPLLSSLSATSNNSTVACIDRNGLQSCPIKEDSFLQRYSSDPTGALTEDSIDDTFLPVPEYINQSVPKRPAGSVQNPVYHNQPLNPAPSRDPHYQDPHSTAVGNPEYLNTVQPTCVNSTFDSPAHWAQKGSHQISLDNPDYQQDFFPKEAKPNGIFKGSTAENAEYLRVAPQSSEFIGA
Measurement description: Inhibition of EGFR in human A431 cell lysate using tyrosine/glutamic acid polymer as substrate by ELISA
State the value with its unit after it.

Simply: Clc1cccc(Nc2ncnc3ccc(NCc4ccc5c(c4)OCCCO5)cc23)c1 , Epidermal growth factor receptor (Homo sapiens, UniProt P00533), IC50 = 216 nM

Simply: O=C(Nc1ccc2ncnc(Nc3cccc(Cl)c3)c2c1)C1COc2ccccc2O1 (stereo not given) , Epidermal growth factor receptor (Homo sapiens, UniProt P00533), IC50 = 2750 nM

Simply: Clc1cccc(Nc2ncnc3ccc(NCc4ccc5c(c4)OCCCCO5)cc23)c1 , Epidermal growth factor receptor (Homo sapiens, UniProt P00533), IC50 = 920 nM

Simply: O=C(Nc1ccc2ncnc(Nc3cccc(Br)c3)c2c1)c1cccc2c1OCCO2 , Epidermal growth factor receptor (Homo sapiens, UniProt P00533), IC50 = 1630 nM

Simply: O=C(Nc1ccc2ncnc(Nc3cccc(Cl)c3)c2c1)c1cccc2c1OCCO2 , Epidermal growth factor receptor (Homo sapiens, UniProt P00533), IC50 = 1290 nM

Simply: Brc1cccc(Nc2ncnc3ccc(NCc4ccc5c(c4)OCCO5)cc23)c1 , Epidermal growth factor receptor (Homo sapiens, UniProt P00533), IC50 = 1020 nM

Simply: Brc1cccc(Nc2ncnc3ccc(NCc4ccc5c(c4)OCCCCO5)cc23)c1 , Epidermal growth factor receptor (Homo sapiens, UniProt P00533), IC50 = 1140 nM

Simply: O=C(Nc1ccc2ncnc(Nc3cccc(Br)c3)c2c1)C1COc2ccccc2O1 (stereo not given) , Epidermal growth factor receptor (Homo sapiens, UniProt P00533), IC50 = 3680 nM

Simply: Brc1cccc(Nc2ncnc3ccc(NCc4ccc5c(c4)OCCCO5)cc23)c1 , Epidermal growth factor receptor (Homo sapiens, UniProt P00533), IC50 = 98 nM

Simply: Brc1cccc(Nc2ncnc3ccc(NCc4ccc5c(c4)OCO5)cc23)c1 , Epidermal growth factor receptor (Homo sapiens, UniProt P00533), IC50 = 630 nM

###

Field: IC50. Provide a value for each of the compounds that follow.
Target: Receptor tyrosine-protein kinase erbB-2 (Homo sapiens, UniProt P04626)
Sequence (P04626 whole entry): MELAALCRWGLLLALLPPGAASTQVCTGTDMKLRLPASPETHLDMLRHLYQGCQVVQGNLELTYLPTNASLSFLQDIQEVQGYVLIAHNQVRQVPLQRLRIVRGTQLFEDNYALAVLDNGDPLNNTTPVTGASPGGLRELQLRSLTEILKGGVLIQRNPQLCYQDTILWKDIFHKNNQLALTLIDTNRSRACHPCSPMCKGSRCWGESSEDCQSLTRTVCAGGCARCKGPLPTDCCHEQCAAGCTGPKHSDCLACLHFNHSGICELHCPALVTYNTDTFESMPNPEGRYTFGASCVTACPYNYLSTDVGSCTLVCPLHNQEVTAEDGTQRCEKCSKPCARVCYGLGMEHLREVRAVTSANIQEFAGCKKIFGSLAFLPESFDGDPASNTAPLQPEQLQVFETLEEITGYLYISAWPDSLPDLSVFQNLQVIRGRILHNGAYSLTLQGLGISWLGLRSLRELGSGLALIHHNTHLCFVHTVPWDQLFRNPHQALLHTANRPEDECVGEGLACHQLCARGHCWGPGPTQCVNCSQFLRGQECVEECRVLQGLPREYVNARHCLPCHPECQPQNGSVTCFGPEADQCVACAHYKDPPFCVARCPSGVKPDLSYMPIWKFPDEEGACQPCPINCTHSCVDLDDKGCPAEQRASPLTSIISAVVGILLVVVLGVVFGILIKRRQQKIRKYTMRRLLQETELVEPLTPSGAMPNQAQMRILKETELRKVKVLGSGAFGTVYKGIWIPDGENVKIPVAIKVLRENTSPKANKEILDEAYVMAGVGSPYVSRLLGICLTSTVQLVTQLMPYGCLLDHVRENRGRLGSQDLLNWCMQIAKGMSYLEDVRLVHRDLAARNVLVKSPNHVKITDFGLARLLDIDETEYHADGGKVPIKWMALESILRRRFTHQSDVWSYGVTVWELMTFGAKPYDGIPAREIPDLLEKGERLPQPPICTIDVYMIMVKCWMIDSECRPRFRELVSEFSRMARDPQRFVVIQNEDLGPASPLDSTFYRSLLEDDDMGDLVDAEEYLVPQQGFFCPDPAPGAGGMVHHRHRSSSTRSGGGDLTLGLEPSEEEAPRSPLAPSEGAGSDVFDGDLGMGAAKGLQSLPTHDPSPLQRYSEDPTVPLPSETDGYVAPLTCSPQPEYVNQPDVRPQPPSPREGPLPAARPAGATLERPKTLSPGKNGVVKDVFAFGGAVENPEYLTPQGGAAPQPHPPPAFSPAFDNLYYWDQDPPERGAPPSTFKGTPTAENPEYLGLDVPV
Measurement description: Inhibition of recombinant HER2 expressed in baculovirus infected Sf9 cells using [32P]ATP incubated for 30 mins prior to ATP addition measured after 20 mins by liquid scintillation counting

compound Clc1cccc(Nc2ncnc3ccc(NCc4ccc5c(c4)OCCCCO5)cc23)c1 , IC50 observed: > 10 µM

compound Clc1cccc(Nc2ncnc3ccc(NCc4ccc5c(c4)OCO5)cc23)c1 , IC50 observed: 6.5 µM

compound Brc1cccc(Nc2ncnc3ccc(NCc4ccc5c(c4)OCCCO5)cc23)c1 , IC50 observed: 4.8 µM

###

Field: pIC50. Provide a value for each of the compounds that follow.
pIC50: −log10 of the molar value.

Simply: Brc1cccc(Nc2ncnc3ccc(NCc4ccc5c(c4)OCCCO5)cc23)c1 , Vascular endothelial growth factor receptor 2 (Homo sapiens, UniProt P35968), pIC50 = < 5.00

Simply: Clc1cccc(Nc2ncnc3ccc(NCc4ccc5c(c4)OCO5)cc23)c1 , Vascular endothelial growth factor receptor 2 (Homo sapiens, UniProt P35968), pIC50 = < 5.00

Simply: Clc1cccc(Nc2ncnc3ccc(NCc4ccc5c(c4)OCCCCO5)cc23)c1 , Vascular endothelial growth factor receptor 2 (Homo sapiens, UniProt P35968), pIC50 = < 5.00
